Tested on: Chordin-like protein 2 (CHRDL2)
methodSummary: CHRDL2 small-molecule binders, primary screen, biochemical, small-molecule microarray, 635 nm fluorescence (AID 1126);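 also: printed compound slides probed with Chrdl2 protein at 4 µg/mL for 1 h at 4 C; score merges 667 nm emission intensity with signal to noise over three replicate slides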
condition: small-molecule microarray binding, fluorescence 635 nm; higher = more signal
# composite z-score per entry

Study these solved cases before continuing.
molecule	recordedValue
CCC(CC)C(O)C1C=CC2C(=O)N(c3ccccc3)C(=O)C2N1Nc1ccc([N+](=O)[O-])cc1 (configuration not stated)	-0.0998
C=CCC(OC(C)=O)[C@@H]1[C@@H](N(Cc2cccc3ccccc23)C(=O)c2ccc(-c3ccccc3)cc2)c2cc(OCCCO)ccc2N1C(=O)c1ccc(-c2ccccc2)cc1 (some centres not stated)	-0.046
COc1ccc(C(O)C2C=CC3C(=O)N(c4ccccc4)C(=O)C3N2Nc2ccc(C(C)C)cc2)c2ccccc12 (configuration not stated)	-0.118
O=C(O)[C@@H]1C[C@@H]2C(=O)N3CCC[C@H]3C(=O)N2[C@@H]1c1cccc(OCCO)c1	1.11
CC(C)CCC[C@@H](C)[C@H]1CC[C@@]2(C)C3=C(CC[C@]12C)[C@@]1(C)CC[C@H](OC(=O)c2ccccc2)C(C)(C)C1CC3 (some centres not stated)	0.418
[N-]=[N+]=NCc1ccccc1[C@@H]1OC(c2ccc(OCCCO)cc2)=N[C@]1(Cc1ccccc1N=[N+]=[N-])C(=O)N1CCCCC1	-0.39

We next turn to a different molecule, shown below.
Please report the recorded composite z-score for COCCCNC(=O)[C@@]1(c2ccc([N+](=O)[O-])cc2)CC(=O)N(C(C)C)[C@@H]1c1ccc(CO)cc1 .
0.454
